Reference source for all entries: PubChem BioAssay (NCI)

- Tested on: SK-MEL-5 melanoma
- EXPERIMENT_SUMMARY: NCI tumour cell line growth inhibition, 48 h

COMPOUND: COc1ccc2c(c1)CCC1C2CC[C@]2(C)/C(=N/OC(=O)Cc3ccccc3)CCC12 (stereo partly specified)
GI50: 12500 nM
--
COMPOUND: C=C1C(=O)O[C@H]2[C@H]1CC/C(COC(=O)NCc1c[nH]c3ccc(Cl)cc13)=C\CC[C@@]1(C)O[C@@H]21
GI50: 1640 nM
--
COMPOUND: COc1cc2nc(Nc3cccc(F)c3)nc(Nc3cc(C)[nH]n3)c2cc1OC
GI50: 1440 nM
--
COMPOUND: Nc1ccc(/C=N/Nc2ccnc3c(N)cccc23)c2cccnc12
GI50: 1780 nM
--
COMPOUND: COc1ccc(C2=NN(C(C)=O)C(c3cn(-c4ccccc4)nc3-c3ccc(Cl)cc3)C2)cc1 (stereo unspecified)
GI50: > 100000 nM
--
COMPOUND: CCOC(=O)c1c(C(F)(F)F)n([O-])c2ccc(OC)cc2[n+]1=O
GI50: 1700 nM

---

- System: MDA-MB-231 breast
- EXPERIMENT_SUMMARY: NCI tumour cell line growth inhibition, 48 h; in the data active means GI50 below about 0.43 µM; inactive means the rest
Possible outcomes: True (active), False (inactive)

SAMPLE_SMILES: C[C@@H]1C=C2C(=O)O[C@@H]3CC[C@H](C1)[C@]23O
MEASURED_TARGET: MDA-MB-231 breast
ASSIGNED_CLASS: False

SAMPLE_SMILES: C=C(C)[C@@H]1CC[C@]2(C)[C@H](CC[C@@H]3[C@H]4[C@H]5OC[C@@]4(CCC5(C)C)CC[C@]32C)[C@@]1(C)CCCN
MEASURED_TARGET: MDA-MB-231 breast
ASSIGNED_CLASS: False

SAMPLE_SMILES: COc1cc(-c2cc(-c3nc4ccc(Cl)cc4[nH]3)[nH]n2)cc(OC)c1OC
MEASURED_TARGET: MDA-MB-231 breast
ASSIGNED_CLASS: False

SAMPLE_SMILES: CCCCCCCC[N+](C)(CCCCCCCC)CCCCCCCC
MEASURED_TARGET: MDA-MB-231 breast
ASSIGNED_CLASS: True

---

- Test system: OVCAR-8 ovarian
- EXPERIMENT_SUMMARY: NCI tumour cell line growth inhibition, 48 h

COMPOUND: O=C1OC(O)C(Oc2ccc(Cl)cc2)=C1Cl (configuration not stated)
TGI: > 100 µM
--
COMPOUND: CC(=O)N[C@H]1CCCC[C@@H]1OC(C)=O
TGI: > 100 µM
--
COMPOUND: OCCN(CCO)c1ccc2c(c1)Cc1ccccc1-2
TGI: > 100 µM
--
COMPOUND: CN(C)c1nc(NN)c2c(-c3ccccc3)c(-c3ccccc3)oc2n1
TGI: > 100 µM
--
COMPOUND: NS(=O)(=O)c1ccc(CCN=C=S)cc1
TGI: 10.3 µM
--
COMPOUND: C=C1c2nc3ccccc3n2C=C(c2ccccc2)N1c1ccccc1
TGI: > 100 µM
--
COMPOUND: CC1=C(C(=O)Nc2ccc(Cl)c(Cl)c2)C(c2ccco2)C(C(=O)Nc2ccc(Cl)c(Cl)c2)=C(C)N1
TGI: 24.3 µM
--
COMPOUND: COC1=CC(c2ccc[nH]2)=N/C1=C\c1ccc[nH]1
TGI: 20.5 µM
--
COMPOUND: CC1C=CC(=O)C(n2cc(F)c(=O)[nH]c2=O)O1 (configuration not stated)
TGI: 65.4 µM
--
COMPOUND: CCOP(=O)(OCC)/C(C#N)=C/c1cccn1CC(C)C
TGI: > 100 µM
--
COMPOUND: Cc1ccc(S(=O)(=O)OC2C(C3COC(C)(C)O3)OC3OC(C)(C)OC32)cc1 (configuration not stated)
TGI: > 100 µM
--
COMPOUND: O=C(Cc1ccc(Cl)c(Cl)c1)N(CCc1ccc(Cl)c(Cl)c1)CCN1CCCC1
TGI: 3.82 µM
--
COMPOUND: c1cncc(-c2ncc3cccnc3n2)c1
TGI: > 100 µM
--
COMPOUND: O=C(/C=C/c1ccco1)CC(=O)/C=C/c1ccco1
TGI: > 31.6 µM
--
COMPOUND: COc1ccc(/C=C/C(=O)N[C@@H]2C(=O)N3[C@@H]2SC(C)(C)[C@@H]3C(=O)O)cc1
TGI: > 100 µM
--
COMPOUND: CC(NC(=O)OC(C)(C)C)C(=O)C(N)=O (configuration not stated)
TGI: > 100 µM
--
COMPOUND: COc1ccc2c(c1)OC[C@@H]1c3cc4c(cc3O[C@H]21)OCO4
TGI: > 100 µM
--
COMPOUND: Cc1ccc(S(=O)(=O)N2CCc3ccc(O)c4c3C2Cc2cc(Cl)ccc2-4)cc1 (configuration not stated)
TGI: 5.83 µM
--
COMPOUND: CCOC(=O)c1cn(Cc2ccccc2)c(=O)n1Cc1ccccc1
TGI: > 100 µM
--
COMPOUND: N/N=C1/CCCc2nonc21
TGI: > 100 µM
--
COMPOUND: Oc1c(C2=N[C@H]3CCCC[C@@H]3N2)ccc2ccccc12
TGI: > 100 µM
--
COMPOUND: CC(CO)C1=CC(C#CCOCc2ccccc2)N(C(=O)Oc2ccccc2)c2ccccc21 (configuration not stated)
TGI: > 100 µM
--
COMPOUND: COC1=CC(c2ccc[nH]2)=N/C1=C\c1[nH]c(C)c(C(=O)CCCCC(=O)Nc2ccccc2)c1C
TGI: 4.82 µM
--
COMPOUND: CC1(C)CN=C(Nc2cccc(C(F)(F)F)c2)S1
TGI: > 100 µM
--
COMPOUND: CC(=O)O[C@H]1C(=O)[C@@]2(C)C(C(OC(=O)c3ccccc3)[C@]3(O)CC(OC(=O)C(O)C(NC(=O)c4ccc(C)cc4)c4ccccc4)C(C)=C1C3(C)C)[C@]1(OC(C)=O)CO[C@@H]1C[C@@H]2O (some centres not stated)
TGI: > 25 µM
--
COMPOUND: Cn1c2ccccc2c(=NNc2ccccc2C(=O)O)c2ccccc21
TGI: 66.2 µM
--
COMPOUND: CS(=O)(=O)Nc1ccc(Nc2c3ccccc3nc3ccccc23)cc1
TGI: 32.6 µM
--
COMPOUND: c1ccc(CN(Cn2cccn2)Cn2cccn2)nc1
TGI: > 100 µM
--
COMPOUND: COc1ccc2c(c1)CCC1C2CC[C@]2(C)/C(=N/OC(=O)Cc3ccccc3)CCC12 (some centres not stated)
TGI: 57.1 µM
--
COMPOUND: CCOC(=O)c1c(C(F)(F)F)n([O-])c2ccc(OC)cc2[n+]1=O
TGI: > 100 µM
--
COMPOUND: Cc1ccccc1CN1CC=c2ccccc2=N1
TGI: > 100 µM
--
COMPOUND: O=C(COc1ccccc1)NS(=O)(=O)c1ccccc1
TGI: > 100 µM
--
COMPOUND: CC(=O)Oc1ccccc1C(=O)O
TGI: > 100 µM
--
COMPOUND: O=C(NO)C12C3C4C1C1C2C3C41C(=O)NO (configuration not stated)
TGI: > 100 µM
--
COMPOUND: O=[N+]([O-])O.[Ga]
TGI: > 7940 µM
--
COMPOUND: CC(C)(C)C(=O)C1CC(=O)c2ccccc2C1=O (configuration not stated)
TGI: > 100 µM
--
COMPOUND: NS(=O)(=O)c1ccc(CNc2nc(-c3cccs3)nc3ccc(I)cc23)cc1
TGI: 37.7 µM

---

- Test system: NCI/ADR-RES ovarian
- EXPERIMENT_SUMMARY: NCI tumour cell line growth inhibition, 48 h

MOLECULE: Nc1c(C(=O)Nc2ccccc2Cl)sc2nc3c(cc12)CCCCCC3
TGI: 25.4 µM
--
MOLECULE: NC1=N/C(=C2/CCNC(=O)c3[nH]c(Br)cc32)C(=O)N1
TGI: > 100 µM
--
MOLECULE: Cn1c2ccccc2c(=NNc2ccccc2C(=O)O)c2ccccc21
TGI: 60.8 µM
--
MOLECULE: COc1ccc(-c2nc(-c3nc4ccc(OC)cc4[nH]3)cc3c2[nH]c2ccccc23)cc1
TGI: > 100 µM
--
MOLECULE: O=C(/C=C\c1ccc(Cl)cc1Cl)c1cccs1
TGI: > 100 µM
--
MOLECULE: N#Cc1ccnc(N2C(=O)CC[C@H]2C(=O)N(c2cncc(F)c2)[C@H](C(=O)NC2CC(F)(F)C2)c2ccccc2Cl)c1
TGI: > 100 µM
--
MOLECULE: CSc1nc2sc3cc(Cl)ccc3n2c(=N)c1C#N
TGI: > 100 µM
--
MOLECULE: Cn1c(-c2ccc(/C=N\N3CCN(/N=C/c4ccc(-c5c[n+]6ccsc6n5C)cc4)CC3)cc2)c[n+]2ccsc12
TGI: > 100 µM
--
MOLECULE: NS(=O)(=O)c1ccc(CCN=C=S)cc1
TGI: 11.3 µM
--
MOLECULE: c1ccc(/N=N/Nc2ccc(-c3nc4ccccc4[nH]3)cc2)nc1
TGI: > 100 µM
--
MOLECULE: N#CC1=C(N)OC(c2ccc([N+](=O)[O-])cc2)C1(C#N)C#N (stereo not drawn)
TGI: 51.7 µM
--
MOLECULE: COc1ccc2c(c1)N=C1CSC(c3cc([N+](=O)[O-])ccc3Cl)N1C2 (stereo not drawn)
TGI: 74.1 µM
--
MOLECULE: N/N=C1\CCCc2c1no[n+]2[O-]
TGI: > 100 µM
--
MOLECULE: O=c1[nH]nc(Cc2ccc(Cl)cc2)n1/N=C\c1ccc(/C=N/n2c(Cc3ccc(Cl)cc3)n[nH]c2=O)cc1
TGI: > 100 µM
--
MOLECULE: CCn1cnc2c(Nc3cccc(Cl)c3)nc(N[C@@H]3CCCC[C@@H]3N)nc21
TGI: 6.71 µM
--
MOLECULE: C=C1c2nc3ccccc3n2C=C(c2ccccc2)N1c1ccccc1
TGI: > 100 µM
--
MOLECULE: CCOC(=O)[C@@]12CCC(C1=O)[C@](C)(O)C[C@@H]2c1ccccc1
TGI: > 100 µM
--
MOLECULE: COc1ccc(/C=C/C(=O)N[C@@H]2C(=O)N3[C@@H]2SC(C)(C)[C@@H]3C(=O)O)cc1
TGI: > 100 µM
--
MOLECULE: CS(=O)(=O)Nc1ccc(Nc2c3ccccc3nc3ccccc23)cc1
TGI: 41.8 µM
--
MOLECULE: NCc1nnn(Cc2ccccc2)c1N
TGI: > 100 µM
--
MOLECULE: CCOC(=O)c1[nH]c2ccccc2c1C(=O)C[C@H](NC(=O)C(F)(F)F)C(=O)OC
TGI: > 100 µM
--
MOLECULE: O=C(OC(=C(c1ccccc1)c1ccccc1)N1CCCC1=S)C(c1ccccc1)c1ccccc1
TGI: > 10 µM
--
MOLECULE: COc1cc2c3c(n(CCCNCCCNCCCn4c5c(c6ccccc6c4=O)C(=O)c4ccccc4-5)c(=O)c2cc1OC)-c1cc2c(cc1C3=O)OCO2
TGI: > 67.1 µM
--
MOLECULE: Cc1[nH]c(=O)[nH]c(=O)c1CO
TGI: > 100 µM
--
MOLECULE: CN(C1=NCCO1)c1cccc2c1CCCC2
TGI: > 10 µM
--
MOLECULE: CC(=O)OCC1OC(n2c(N)c(C#N)c(-c3ccc(C)cc3)c(C#N)c2=S)C(OC(C)=O)C(OC(C)=O)C1OC(C)=O (stereo not drawn)
TGI: 91.9 µM
--
MOLECULE: Nc1ccc(/C=N/Nc2ccnc3c(N)cccc23)c2cccnc12
TGI: 4.41 µM
--
MOLECULE: S=C(S)N1CCN(c2ccc(Cl)c(Cl)c2)CC1
TGI: > 100 µM
--
MOLECULE: COc1cc(-n2cc(-c3ccc(Cl)cc3)[nH]c2=O)cc(OC)c1OC
TGI: 63.6 µM
--
MOLECULE: CCOP(=O)(C=C=C(C)C)OCC
TGI: > 100 µM
--
MOLECULE: COc1ccc(-c2ccc(C3CC(c4ccc(Cl)cc4)=NN3)o2)c([N+](=O)[O-])c1 (stereo not drawn)
TGI: > 100 µM
--
MOLECULE: COc1ccc(/C(C)=N/OC(=O)c2c(-c3ccccc3Cl)noc2C)cc1CN1CCOCC1
TGI: > 100 µM
--
MOLECULE: N/N=C1/CCCc2nonc21
TGI: > 100 µM
